# System: 349418-098-R-PDC complex spheroid viability
# Assay Protocol: Anticancer human tumor 349418-098-R-PDC patient-derived lung adenocarcinoma cell line growth inhibition [RAS]
# Cond: second compound 0.1 µM; first compound 0.0316 µM; hits give low values
# Text: RAS pathway inhibitors in Combinations in Complex Spheroids A high-throughput screen of multi-cell type tumor spheroids was designed to identify active combinations of RAS pathway inhibitors and targeted small molecules. Complex spheroids include a stromal component modeled by human endothelial cells (HUVEC) and fibroblasts modeled by human mesenchymal stem cells (MSCs). […] Compounds. […] If the clinical Cmax for an agent had not been determined, the highest concentration tested was 10 microM. […]
Measured Parameter: viability, T/C (%)
Lab book: enter the figure in %, no units written.

Field: example entries. Status: answers known.
>>> recorded_value("C=CC(=O)N1CCN(c2nc(OCC3CCCN3C)nc3c(F)c(-c4nc(N)cc(C)c4C(F)(F)F)c(Cl)cc23)C(C)C1 (centres undefined) + C#Cc1c(F)ccc2cc(O)cc(-c3ncc4c(N5CC6CCC(C5)N6)nc(OCC56CCCN5CC(F)C6)nc4c3F)c12")
104
>>> recorded_value("C=CC(=O)Nc1cc(Nc2nccc(-c3cn(C)c4ccccc34)n2)c(OC)cc1N(C)CCN(C)C + C#Cc1c(F)ccc2cc(O)cc(-c3ncc4c(N5CC6CCC(C5)N6)nc(OCC56CCCN5CC(F)C6)nc4c3F)c12")
82.3

Sure, the documented viability, T/C for O=C(c1ccc(F)c(F)c1Nc1ccc(I)cc1F)N1CC(O)([C@@H]2CCCCN2)C1 + C=CC(=O)N1CCN(c2nc(OCC3CCCN3C)nc3c(F)c(-c4nc(N)cc(C)c4C(F)(F)F)c(Cl)cc23)C(C)C1 is 26.6

get_value(item= NC1c2ccccc2OC12CCN(c1cnc3c(N4CCCc5ncccc54)n[nH]c3n1)CC2 (centres undefined) + C=CC(=O)N1CCN(c2nc(OCC3CCCN3C)nc3c(F)c(-c4nc(N)cc(C)c4C(F)(F)F)c(Cl)cc23)C(C)C1 , readout=viability, T/C) returns 100

The molecule identified as Cc1nc(N2CCC3(CC2)COC(C)C3N)c(CO)nc1Sc1ccnc(N)c1Cl (centres undefined) + C=CC(=O)N1CCN(c2nc(OCC3CCCN3C)nc3c(F)c(-c4nc(N)cc(C)c4C(F)(F)F)c(Cl)cc23)C(C)C1 registered its viability, T/C at 82.8

// field: viability, T/C; key: Nc1ccn(C2OC(CO)C(O)C2(F)F)c(=O)n1 (centres undefined) + C#Cc1c(F)ccc2cc(O)cc(-c3ncc4c(N5CC6CCC(C5)N6)nc(OCC56CCCN5CC(F)C6)nc4c3F)c12 ; value = 6.72

Reported viability, T/C for CCN1CCN(Cc2ccc(Nc3ncc(F)c(-c4cc(F)c5nc(C)n(C(C)C)c5c4)n3)nc2)CC1 + C#Cc1c(F)ccc2cc(O)cc(-c3ncc4c(N5CC6CCC(C5)N6)nc(OCC56CCCN5CC(F)C6)nc4c3F)c12 was 47.6

Lab book: viability, T/C of C=CC(=O)Nc1cc(Nc2nccc(-c3cn(C)c4ccccc34)n2)c(OC)cc1N(C)CCN(C)C + C=CC(=O)N1CCN(c2nc(OCC3CCCN3C)nc3c(F)c(-c4nc(N)cc(C)c4C(F)(F)F)c(Cl)cc23)C(C)C1 noted as 89.4

viability, T/C in this record for CC(Nc1ccc2c(c1)OCCn1cc(N3C(=O)OCC3C(F)F)nc1-2)C(N)=O (centres undefined) + C#Cc1c(F)ccc2cc(O)cc(-c3ncc4c(N5CC6CCC(C5)N6)nc(OCC56CCCN5CC(F)C6)nc4c3F)c12 : 80.4

// viability, T/C value for C[C@@H](NC(=O)c1ncnc(N)c1Cl)c1ncc(C(=O)Nc2cc(C(F)(F)F)c(Cl)cn2)s1 + C#Cc1c(F)ccc2cc(O)cc(-c3ncc4c(N5CC6CCC(C5)N6)nc(OCC56CCCN5CC(F)C6)nc4c3F)c12 : 101

====

Reported viability, T/C values are given for each entry in this list.
# Test system: 349418-098-R-PDC complex spheroid viability
# Assay Protocol: Anticancer human tumor 349418-098-R-PDC cell line growth inhibition [RAS];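 also: spheroids exposed to compound for seven days before viability readout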
# Cond: second compound 0.000949 µM; first compound 0.0316 µM; hits give low values

>>> recorded_value("CC(C)n1nc(-c2ccc3oc(N)nc3c2)c2c(N)ncnc21 + CCn1c(-c2cc(N3CCN(C)CC3)cnc2C(C)OC)c2c3cc(ccc31)-c1csc(n1)CC(NC(=O)C1CC1C)C(=O)N1CCCC(N1)C(=O)OCC(C)(C)C2")
"8.76%"

Now examine the next entry.
For reference, reported viability, T/C for CC(Nc1ccc2c(c1)OCCn1cc(N3C(=O)OCC3C(F)F)nc1-2)C(N)=O (configuration not stated) + CCn1c(-c2cccnc2C(C)OC)c2c3cc(ccc31)N1CCOC(CC(NC(=O)C(C(C)C)N(C)C(=O)C3(F)CCN(C(=O)C#CC(C)(C)N(C)C)CC3)C(=O)N3CCCC(N3)C(=O)OCC(C)(C)C2)C1 stands at 72.9%

====

# System: 349418-098-R-PDC complex spheroid viability
# Assay Protocol: Anticancer human tumor 349418-098-R-PDC cell line growth inhibition [RAS];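 also: spheroids exposed to compound for seven days before viability readout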
# Cond: second compound 0.0316 µM; first compound 0.00316 µM; hits give low values
Listed molecules paired with reported viability, T/C
Express the result in % but write the number alone.

Examples with answers:
>>> recorded_value("O=C(c1ccc(F)c(F)c1Nc1ccc(I)cc1F)N1CC(O)([C@@H]2CCCCN2)C1 + C=CC(=O)N1CCN(c2nc(OCC3CCCN3C)nc3c(F)c(-c4nc(N)cc(C)c4C(F)(F)F)c(Cl)cc23)C(C)C1")
39
>>> recorded_value("C=CC(=O)Nc1cc(Nc2nccc(-c3cn(C)c4ccccc34)n2)c(OC)cc1N(C)CCN(C)C + C=CC(=O)N1CCN(c2nc(OCC3CCCN3C)nc3c(F)c(-c4nc(N)cc(C)c4C(F)(F)F)c(Cl)cc23)C(C)C1")
86.6
>>> recorded_value("CC(C)n1nc(-c2ccc3oc(N)nc3c2)c2c(N)ncnc21 + C#Cc1c(F)ccc2cc(O)cc(-c3ncc4c(N5CC6CCC(C5)N6)nc(OCC56CCCN5CC(F)C6)nc4c3F)c12")
90.5
>>> recorded_value("CCN1CCN(Cc2ccc(Nc3ncc(F)c(-c4cc(F)c5nc(C)n(C(C)C)c5c4)n3)nc2)CC1 + C=CC(=O)N1CCN(c2nc(OCC3CCCN3C)nc3c(F)c(-c4nc(N)cc(C)c4C(F)(F)F)c(Cl)cc23)C(C)C1")
78.8
>>> recorded_value("CCN1CCN(Cc2ccc(Nc3ncc(F)c(-c4cc(F)c5nc(C)n(C(C)C)c5c4)n3)nc2)CC1 + C#Cc1c(F)ccc2cc(O)cc(-c3ncc4c(N5CC6CCC(C5)N6)nc(OCC56CCCN5CC(F)C6)nc4c3F)c12")
66.8

Kindly note the recorded viability, T/C for O=C(c1ccc(F)c(F)c1Nc1ccc(I)cc1F)N1CC(O)([C@@H]2CCCCN2)C1 + C#Cc1c(F)ccc2cc(O)cc(-c3ncc4c(N5CC6CCC(C5)N6)nc(OCC56CCCN5CC(F)C6)nc4c3F)c12 , which is 47.9

// field: viability, T/C; key: Nc1ccn(C2OC(CO)C(O)C2(F)F)c(=O)n1 (stereo unspecified) + C=CC(=O)N1CCN(c2nc(OCC3CCCN3C)nc3c(F)c(-c4nc(N)cc(C)c4C(F)(F)F)c(Cl)cc23)C(C)C1 ; value = 21.6

====

# Tested on: 349418-098-R-PDC complex spheroid viability
# Assay Protocol: Anticancer human tumor 349418-098-R-PDC cell line growth inhibition [RAS];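 also: spheroids exposed to compound for seven days before viability readout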
# Cond: second compound 0.0949 µM; first compound 0.00316 µM; hits give low values
Measured Parameter: viability, T/C (%)
The reply should be a number in %, with the unit left off.

// known answers, use as guide
>>> recorded_value("CC(C)n1nc(-c2ccc3oc(N)nc3c2)c2c(N)ncnc21 + CCn1c(-c2cccnc2C(C)OC)c2c3cc(ccc31)N1CCOC(CC(NC(=O)C(C(C)C)N(C)C(=O)C3(F)CCN(C(=O)C#CC(C)(C)N(C)C)CC3)C(=O)N3CCCC(N3)C(=O)OCC(C)(C)C2)C1")
35.7
>>> recorded_value("C=CC(=O)N1CCN(c2nc(OCC3CCCN3C)nc3c(F)c(-c4nc(N)cc(C)c4C(F)(F)F)c(Cl)cc23)C(C)C1 (centres undefined) + CCn1c(-c2cccnc2C(C)OC)c2c3cc(ccc31)N1CCOC(CC(NC(=O)C(C(C)C)N(C)C(=O)C3(F)CCN(C(=O)C#CC(C)(C)N(C)C)CC3)C(=O)N3CCCC(N3)C(=O)OCC(C)(C)C2)C1")
102
>>> recorded_value("C=CC(=O)Nc1cc(Nc2nccc(-c3cn(C)c4ccccc34)n2)c(OC)cc1N(C)CCN(C)C + CCn1c(-c2cc(N3CCN(C)CC3)cnc2C(C)OC)c2c3cc(ccc31)-c1csc(n1)CC(NC(=O)C1CC1C)C(=O)N1CCCC(N1)C(=O)OCC(C)(C)C2")
105

Consider the additional compound presented here.
Record C=CC(=O)Nc1cc(Nc2nccc(-c3cn(C)c4ccccc34)n2)c(OC)cc1N(C)CCN(C)C + CCn1c(-c2cccnc2C(C)OC)c2c3cc(ccc31)N1CCOC(CC(NC(=O)C(C(C)C)N(C)C(=O)C3(F)CCN(C(=O)C#CC(C)(C)N(C)C)CC3)C(=O)N3CCCC(N3)C(=O)OCC(C)(C)C2)C1 . Reported viability, T/C: 110

These entries and their values trace back to PubChem BioAssay AID2060904.
